Provenance of the data: patent US20240208992A1

Target: human F508del-CFTR (Homo sapiens, UniProt P13569, DEL508-508)
Sequence (P13569 with tags, fused parts or gaps DEL508-508): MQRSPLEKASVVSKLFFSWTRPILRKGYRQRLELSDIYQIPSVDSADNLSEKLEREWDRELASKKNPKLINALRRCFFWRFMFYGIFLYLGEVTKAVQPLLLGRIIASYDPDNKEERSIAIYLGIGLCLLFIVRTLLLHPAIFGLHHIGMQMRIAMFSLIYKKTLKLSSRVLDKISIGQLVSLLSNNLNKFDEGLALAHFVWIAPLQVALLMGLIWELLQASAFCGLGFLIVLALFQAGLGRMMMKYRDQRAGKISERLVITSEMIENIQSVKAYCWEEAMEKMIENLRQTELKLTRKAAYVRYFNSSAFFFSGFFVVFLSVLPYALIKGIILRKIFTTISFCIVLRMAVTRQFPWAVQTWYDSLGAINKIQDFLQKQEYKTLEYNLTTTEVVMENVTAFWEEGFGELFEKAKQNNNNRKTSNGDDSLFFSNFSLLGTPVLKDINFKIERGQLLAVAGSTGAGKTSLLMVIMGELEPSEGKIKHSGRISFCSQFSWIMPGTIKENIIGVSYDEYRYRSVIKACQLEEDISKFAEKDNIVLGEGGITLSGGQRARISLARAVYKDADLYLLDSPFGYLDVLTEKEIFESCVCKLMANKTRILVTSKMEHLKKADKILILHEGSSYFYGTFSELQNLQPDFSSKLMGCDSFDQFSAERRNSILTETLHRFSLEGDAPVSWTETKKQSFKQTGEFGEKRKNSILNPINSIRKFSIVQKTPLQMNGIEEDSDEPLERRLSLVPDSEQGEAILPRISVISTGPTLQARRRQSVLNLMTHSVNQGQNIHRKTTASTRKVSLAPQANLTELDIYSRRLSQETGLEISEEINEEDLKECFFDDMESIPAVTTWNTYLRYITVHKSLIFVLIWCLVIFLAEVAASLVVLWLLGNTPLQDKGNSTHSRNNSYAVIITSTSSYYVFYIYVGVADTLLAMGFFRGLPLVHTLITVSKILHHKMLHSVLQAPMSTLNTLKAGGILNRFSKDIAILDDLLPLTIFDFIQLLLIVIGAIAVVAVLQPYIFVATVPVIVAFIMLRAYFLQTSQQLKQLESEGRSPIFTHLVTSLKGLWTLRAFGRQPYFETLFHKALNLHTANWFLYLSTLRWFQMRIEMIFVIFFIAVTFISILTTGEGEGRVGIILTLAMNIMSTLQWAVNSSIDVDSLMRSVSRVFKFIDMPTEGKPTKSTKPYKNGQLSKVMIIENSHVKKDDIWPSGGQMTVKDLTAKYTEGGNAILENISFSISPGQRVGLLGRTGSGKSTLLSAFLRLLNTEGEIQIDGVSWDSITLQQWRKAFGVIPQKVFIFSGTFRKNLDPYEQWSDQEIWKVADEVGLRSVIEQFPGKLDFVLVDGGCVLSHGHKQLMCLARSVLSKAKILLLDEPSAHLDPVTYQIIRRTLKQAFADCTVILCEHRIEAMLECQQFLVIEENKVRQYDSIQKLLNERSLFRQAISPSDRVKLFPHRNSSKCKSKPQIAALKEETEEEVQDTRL
Assay: F508del-CFTR cell surface expression (corrector activity), DiscoveRx ß-galactosidase complementation chemiluminescence assay in recombinant U2OS cell line;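 further: U2OS cells co-expressing ProLink-tagged F508del-CFTR and a membrane-anchored enzyme acceptor, where more surface CFTR restores β-galactosidase activity measured by chemiluminescence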
Details: EC50, F508del-CFTR cell surface expression, U2OS cell line, 16h compound incubation; geomean values
quantityMeasured: EC50

• COc1cccc(CCNC(=O)[C@@H]2CC(=O)N(C)[C@@H](CC3CCCC3)C(=O)N(C[C@@H]3CCCCO3)CC(=O)N[C@H](Cc3ccccc3)COc3ccc4ccccc4c3C(=O)N2)c1 (mixture of isomers) [Example 295] = 202 nM
• CC(C)C[C@H]1C(=O)N(CCC2CCC3(CCC3)O2)CC(=O)N[C@H](Cc2ccccc2)COc2ccc3ccccc3c2C(=O)N[C@H](C(=O)NCCc2ccc3c(c2)OCO3)CC(=O)N1C (stereo partly shown) = 121 nM
• COc1cccc2c1C(=O)N[C@H](C(=O)NCCc1ccccc1)CC(=O)N(C)[C@@H](CC(C)C)C(=O)N(CCC1CCCCC1)CC(=O)N[C@H](Cc1ccccc1)CO2 = 309 nM
• COc1nccc2c1C(=O)N[C@H](C(=O)NCCc1ccc(Br)cc1)CC(=O)N(C)[C@@H](CC(C)C)C(=O)N1CCCC[C@@H]1C(=O)N[C@H](Cc1ccccc1)CO2 = 410 nM
• COc1cc2c(cc1OC)C(=O)N[C@H](C(=O)NCCc1ccccc1F)CC(=O)N(C)[C@@H](CC(C)C)C(=O)N(C)CC(=O)N[C@H](Cc1ccccc1)CO2 = 425 nM
• COc1cccc(CCNC(=O)[C@@H]2CC(=O)N(C)[C@@H](CC(C)C)C(=O)N(CCC3CCCCC3)CC(=O)N[C@H](Cc3ccccc3)COc3ccc4nc(C)oc4c3C(=O)N2)c1 = 65 nM
• COc1cccc(CCNC(=O)[C@@H]2CC(=O)N(C)[C@@H](C)C(=O)N(CCC3CCCCC3)CC(=O)N[C@H](Cc3ccccc3)COc3cccc(OC)c3C(=O)N2)c1 = 442 nM
• COc1cccc(CCNC(=O)[C@@H]2CC(=O)N(C)[C@@H](CC(C)C)C(=O)N(CCC3CCCCC3)CC(=O)N[C@H](Cc3ccccc3)COc3cnc4c(F)cccc4c3C(=O)N2)c1 = 65 nM
• COc1cccc(CCNC(=O)[C@@H]2CC(=O)N(C)[C@@H](CC(C)C)C(=O)N(CCC3CCCCC3)CC(=O)N[C@H](Cc3ccccc3)COc3ccc4ccccc4c3C(=O)N2)c1 [Example 268] = 100 nM
• COc1cccc(CCNC(=O)[C@@H]2CC(=O)N(C)[C@@H](CC(C)C)C(=O)N(CCC3CCCCC3)CC(=O)N[C@H](Cc3ccccc3)COc3cc4ccccc4cc3C(=O)N2)c1 = 83 nM
